System: C6
protocol-notes: Induction of intracellular reactive oxygen species formation in rat C6 cells at 2 uM after 24 hrs by DHE dye-based inverted fluorescent microscopic analysis
Format: functional, cell-based
Calls of active or inactive are those of the source. The calls are words filed in the database; no cut-off is given here.
Outcome codes: 1.0 = active, 0.0 = inactive

>  <molecule>
COc1ccc2c(Cc3ccccc3)c3[n+](cc2c1OC)CCc1cc2c(cc1-3)OCO2

>  <group-label>
0.0

$$$$
>  <molecule>
COc1ccc2cc3[n+](cc2c1OC)CCc1cc2c(cc1-3)OCO2.[Cl-] [BERBERINE CHLORIDE]

>  <group-label>
0.0

$$$$
>  <molecule>
CCCCCCCCCCCCCCCCCCc1c2[n+](cc3c(OC)c(OC)ccc13)CCc1cc3c(cc1-2)OCO3.[I-]

>  <group-label>
0.0

$$$$
>  <molecule>
COc1ccc2cc3[n+](cc2c1OCc1ccccc1)CCc1cc2c(cc1-3)OCO2.[Br-]

>  <group-label>
1.0

$$$$
>  <molecule>
CCCCCCCCCCCCc1c2[n+](cc3c(OC)c(OC)ccc13)CCc1cc3c(cc1-2)OCO3.[I-]

>  <group-label>
1.0

$$$$
>  <molecule>
CCCCCCCCCCOc1c(OC)ccc2cc3[n+](cc12)CCc1cc2c(cc1-3)OCO2

>  <group-label>
1.0

$$$$
>  <molecule>
CCCCCCCCCCc1c2[n+](cc3c(OC)c(OC)ccc13)CCc1cc3c(cc1-2)OCO3

>  <group-label>
1.0

$$$$
>  <molecule>
CCCCCCCCCCCCCCCCCCOc1c(OC)ccc2cc3[n+](cc12)CCc1cc2c(cc1-3)OCO2.[Br-]

>  <group-label>
0.0

$$$$
>  <molecule>
CCCCCCCCCCCCOc1c(OC)ccc2cc3[n+](cc12)CCc1cc2c(cc1-3)OCO2.[Br-]

>  <group-label>
1.0

$$$$

Every entry's value here was drawn from ChEMBL document CHEMBL3621056.
